src = PubChem BioAssay AID720623

inhibition values, listed per item
tested on: methionyl-tRNA synthetase (Trypanosoma brucei brucei); test: T. brucei MetRS aminoacylation inhibitors, late-stage follow-up, counter-screen for T. brucei MetRS inhibitor project, biochemical, radioactivity, assay provider (AID 720623); details: Recombinant T. brucei MetRS enzyme, [3H]methionine tRNA aminoacylation, filter scintillation, 120 min; inhibition; at 1 µM; stronger effect = higher value
// note: answer is a bare numeric in %

CC(=O)c1ccc(N2CCN(C(=O)CCCn3c(=O)[nH]c4ccc(Br)cc4c3=O)CC2)cc1; 68.1

Give the reported inhibition for O=C(N/C(=C\c1cccnc1)c1nc2ccccc2[nH]1)c1cccc(Br)c1 (system: methionyl-tRNA synthetase (Trypanosoma brucei brucei)). 14.4

Follow-up entry: O=C1[C@@H]2Cc3c([nH]c4ccccc34)C(c3cccc([N+](=O)[O-])c3)N2C(=O)CN1CCCO (some centres undefined) 63.2

Follow-up entry: O=C1CC(N(CCc2ccccc2)C(=S)Nc2ccccc2)C(=O)N1c1ccc(Br)cc1 (centres undefined) 84.2
